target.or.system: SARS-CoV-2 native Spike (S) trimer (Acro Biosystems) (SARS-CoV-2), P0DTC2
run.description: ELISA on spike trimer
condition.set: remark: other sources report otherwise
recorded.endpoint: OD (450 nm)

// recorded OD (450 nm) for AB-009734 (antibody, V domains shown) VH: QVHLVQSGAEVKTPGASVRVSCKASGYTFTSHYMHWVRQAPGQGLEWMGLINPSGSGTAYPQHFQGRVTMTRDTSTTTDYMDLSSLRSEDTAMYFCARMERSGAFDLWGQGTMVTVSS VL: EIVLTQSPGTLSLSPGERATLSCRASQTISSRYLAWYYQKPGQAPRLLIQGSSIRATGIPDRFSGSGSGTDFTLTISRLEPEDFAVYYCQHYGSSPPMYTFGQGTKLEIK : 3.57 OD (450 nm)

More entries:
# binder AB-009769 (antibody, V domains shown) VH: EVQLVESGGGLVQPGGSLRLSCAASGFTFSSYWMSWVRQAPGKGLEWVANIKQDGSEKYYVDSVKGRFTISRDNAKNSLYLQMNSLRAEDTAVYYCARSPEVLWFGDPVLDNWFDPWGQGTLVTVSS VL: SYELTQPPSVSVSPGQTARITCSGDALPKQYAYWYQQKPGQAPVLVIYKDSERPSGIPERFSGSSSGTTVTLTISGVQAEDEADYYCQSADSSGTYPVVFGGGTKLTVL ; its OD (450 nm) = 2.87 OD (450 nm)

The recorded OD (450 nm) for AB-009358 (antibody, V domains shown) VH: QVHLVQSGAEVKKPGASVKISCKASGYTFTSYYVHWVRQAPGQGLEWMGIIKPSGAGTIYAQKFQGRVTMTRDTSTSTVYMELSSLISEDTAVYYCARGGGVTDRDYWGQGTLVTVSS VL: QSALTQEASVSATVGQKVTLSCTGNTNNIGGYAVGWHQQISHGAPKTVMFGNSLPSGIPDRFSGSKSGTTASLIISGLQPEDEADYYCSTWDSSLGAVLFGGGTKLTVL is 2.76 OD (450 nm)

Origin of the recorded values: patent US20240301038A1
